target: RNA-directed RNA polymerase (Hepacivirus hominis, UniProt O39930); experiment: Inhibition of HCV 1b NS5B delta21 RNA dependent RNA polymerase by SPA
Sequence (O39930 whole entry): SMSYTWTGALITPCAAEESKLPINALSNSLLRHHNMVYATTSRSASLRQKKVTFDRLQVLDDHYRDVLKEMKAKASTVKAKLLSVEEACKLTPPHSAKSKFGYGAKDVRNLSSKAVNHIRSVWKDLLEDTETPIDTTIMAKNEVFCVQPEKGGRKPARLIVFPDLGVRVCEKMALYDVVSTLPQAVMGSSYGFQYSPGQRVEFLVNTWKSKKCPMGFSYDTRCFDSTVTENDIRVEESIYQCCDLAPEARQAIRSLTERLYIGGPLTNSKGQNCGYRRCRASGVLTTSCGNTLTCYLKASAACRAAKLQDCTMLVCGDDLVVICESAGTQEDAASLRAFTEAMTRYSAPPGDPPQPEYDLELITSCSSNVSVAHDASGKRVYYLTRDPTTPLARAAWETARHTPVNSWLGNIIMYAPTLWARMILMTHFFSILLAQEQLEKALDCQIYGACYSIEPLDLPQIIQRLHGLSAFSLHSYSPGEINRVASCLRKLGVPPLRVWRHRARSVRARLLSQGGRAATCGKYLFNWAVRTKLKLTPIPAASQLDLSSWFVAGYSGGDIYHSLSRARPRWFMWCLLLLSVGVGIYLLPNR
quantity: pIC50
FYI, pIC50 means -log10 of a concentration in mol per litre.

GET /values?readout=pIC50&system=RNA-directed RNA polymerase (Hepacivirus hominis, UniProt O39930)&item= Cn1c(-c2ccoc2)c(C2CCCC2)c2ccc(C(=O)O)c(O)c21
7.12

Request: pIC50, test system RNA-directed RNA polymerase (Hepacivirus hominis, UniProt O39930), entry Cn1c(-c2ccoc2)c(C2CCCC2)c2ccc(C(=O)O)c(Cl)c21
6.54

GET /values?readout=pIC50&system=RNA-directed RNA polymerase (Hepacivirus hominis, UniProt O39930)&item= O=C(O)c1ccc2c(C3CCCCC3)c(-c3ccccc3)[nH]c2c1
7.30

I'm curious: which pIC50 was measured for Cc1c(-c2ccoc2)n(C2CCCCC2)c2ccc(C(=O)O)cc12 tested on RNA-directed RNA polymerase (Hepacivirus hominis, UniProt O39930)?
7.36
